# System: UACC-62 melanoma
# Assay Protocol: NCI-60 one-dose screen, 48 h
# Measurement Setup: 10 µM unless noted
About 83,000 compounds went through this panel and 20% of them were active in at least one assay; those are over-represented in the sample as a whole. Calls of active or inactive are those of the source. Rule for the calls: active = growth percent below 10; inactive = the rest.
Classes used: active, inactive

| Molecule | Label Value |
| --- | --- |
| COc1ccc(Cn2cc3c(c2)-c2oncc2CC3)cc1OC | inactive |
| O=C1/C(=C/c2ccc(Cl)cc2)CCC/C1=C\c1ccc(Cl)cc1 | inactive |
| CCCCCCCCc1ccc(OCCOCC[N+](C)(C)CC)cc1 (tested in a mixture with another compound) | active |
| N=C(N)N=Nc1ccc(NN=C(N)N)cc1 | inactive |
| COC1=C(OC)C(=O)c2ccccc2C1=O | inactive |
| CCN(CC)CCCC(C)Nc1c(C)cnc2cc(Cl)c(C)cc12 (stereo not given) | inactive |
| CCCCCCN(CCCCCC)CCC(=O)Nc1ccc(S(=O)(=O)c2ccc(NC(=O)CCN(CCCCCC)CCCCCC)cc2)cc1 | inactive |
| Cc1ccc(NC(=O)CCl)cc1Cl | inactive |
| O=C(Nc1ccccc1)Nc1ccc(Nc2ncnc3sc4c(c23)CCCC4)cc1 | inactive |
| CCOc1ccc(Br)cc1/C=C(\C#N)c1ccc([N+](=O)[O-])cc1 | inactive |
| CCCCCCC(=O)C(C)C | inactive |
| COc1ccc(/C=C(/C(=O)N2CCCCC2)c2cc(OC)c(OC)c(OC)c2)cc1 | inactive |
| CCN(CC)C(=O)C1(C)CCCC2(C)c3cc(OC(C)=O)ccc3CCC12 (stereo not given) | inactive |
| N#CC1=C(N2CCOCC2)NC2c3ccccc3Sc3ccccc3N2C1=N (stereo not given) | inactive |
| C=CN(C)S(C)(=O)=O | inactive |
| COc1ccc(C2CC(=O)c3c(O)cc(OC4OC(COC5OC(C)C(O)C(O)C5O)C(O)C(O)C4O)cc3O2)cc1O (stereo not given) | inactive |
| COC(=O)/C=C/c1cc(O)c2oc(-c3ccc(O)c(O)c3)c(C(=O)OC)c2c1 | inactive |
| Cn1c2c(cc(S(=O)(=O)c3ccccc3)c1=O)CCc1c-2cnn1-c1ccc(Cl)cc1 | inactive |
| O=C(/C=C1\C(=O)N(Cc2ccccc2)c2ccccc21)c1ccc(OCCN2CCCCC2)cc1 | inactive |
| C=C(C)[C@@H]1CC[C@]2(COC(=O)c3ccccc3C(=O)O)CC[C@]3(C)[C@H](CC[C@@H]4[C@@]5(C)CCCNC(C)(C)[C@@H]5CC[C@]43C)[C@@H]12 | inactive |

###

# Tested on: NCI/ADR-RES ovarian
# Assay Protocol: NCI-60 one-dose screen, 48 h (100 = growth as untreated, 0 = no growth, -100 = all killed)
# Measurement Setup: 10 µM unless noted
The panel holds about 83,000 compounds, 20% with a hit somewhere; the sample as a whole holds those more often.

| Compound | growth, % |
| --- | --- |
| O=C(/C=C1\C(=O)N(Cc2ccc([N+](=O)[O-])cc2)c2ccccc21)c1ccc(OCCN2CCCCC2)cc1 | 6.18 |
| CCCCCN1CCN(C(CC(=O)c2ccccc2)C(=O)c2ccccc2)CC1 (stereo not given) | 99 |
| CCCCCCCCCCCCCCCCCCOP(=O)(O)O | 108 |
| COc1ccccc1Cn1cc2c(c1)-c1oncc1CC2 | -2.96 |
| c1ccc2[nH]c(-c3ccc(OCCCCCOc4ccc(-c5nc6ccccc6[nH]5)cc4)cc3)nc2c1 | -0.189 |
| CCCC(CCC)Oc1ccc(CCCC2=C(O)c3ccccc3C(=O)C2=O)cc1 | 28.7 |
| c1ccc(-c2cn3ccnc3c(-c3ccc4ncn(C5CCCCC5)c4c3)n2)cc1 | 49.5 |
| Nc1cc(N)c2nc(-c3ccccc3)c(NCCc3ccc(Cl)c(Cl)c3)nc2c1 | -54.3 |
| N=C(N)c1ccc(-c2ccc(-c3ccc(Cl)cc3)s2)s1 | -47 |
| C=CCC(CCC(CC=C)C(=O)OCC)C(=O)OCC (stereo not given) | 109 |
